# target system: T1, eTau 2
# T1 construct: member of the group m9
# T1 polypeptide: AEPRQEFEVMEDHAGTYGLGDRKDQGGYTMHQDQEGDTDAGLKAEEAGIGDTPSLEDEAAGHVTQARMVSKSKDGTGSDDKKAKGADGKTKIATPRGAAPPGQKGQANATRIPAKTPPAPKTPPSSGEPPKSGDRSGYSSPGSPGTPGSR
# method: relative binding affinity, method not named (Table 4)
pKd: −log10 of the molar value.
assay endpoint: pKd

[[record]]
binder = "VH4/Vk2 (antibody, V domains shown, member of the group m7; also called humanized IPN002 variant VH4/Vk2) VH: EVQLVESGGALVKPGGSLRLSCAASGFSFSKYGMSWVRQAPGKGLEWVATISSSGSRTYYPDSVKGRFTISRDNAKNTLYLQMNSLRAEDTAMYYCAISWDGAMDYWGQGTTVTVSS VL: DVVMTQSPLSLPVTLGQPASISCKSSQSIVHSNGNTYLEWYLQKPGQSPQLLVYKVSNRFSGVPDRFSGSGSGTDFTLKISRVEAEDVGTYYCFQGSLVPWAFGGGTKVEIK"
recorded_value = 9.35

[[record]]
binder = "humanized IPN002 variant VH2/Vk1 (antibody, V domains shown) VH: EVHLVESGGALVKPGGSLRLSCAASGFSFSKYGMSWVRQAPGKGLEWVATISSSGSRTYYPDSVKGRFTISRDNAKNTLYLQMNSLRAEDTAMYYCSISWDGAMDYWGQGTTVTVSS VL: DVLMTQSPLSLPVTLGQPASISCKSSQSIVHSNGNTYLEWYLQKPGQSPQLLVYKVSNRFSGVPDRFSGSGSGTDFTLKISRVEAEDVGTYYCFQGSLVPWAFGGGTKVEIK"
recorded_value = 9.65

[[record]]
binder = "VH1/Vk3 (antibody, V domains shown, member of the group m7; also called humanized IPN002 variant VH1/Vk3) VH: EVHLVESGGALVKPGGSLRLSCAASGFSFSKYGMSWVRQAPGKGLEWVATISSSGSRTYYPDSVKGRFTISRDNAKNTLYLQMSSLKSEDTAMYYCSISWDGAMDYWGQGTSVTVSS VL: DVVMTQSPLSLPVTLGQPASISCKSSQSIVHSNGNTYLEWYLQKPGQSPQLLVYKVSNRFSGVPDRFSGSGSGTDFTLKISRVEAEDVGVYYCFQGSLVPWAFGGGTKVEIK"
recorded_value = 9.35

